Reference source: PubChem BioAssay AID463203

Provide the reported AC50 of each item.
- TEST SYSTEM: Glycogen synthase kinase-3 alpha (Homo sapiens) (UniProt P49840)
- Sequence (P49840 whole entry, looked up): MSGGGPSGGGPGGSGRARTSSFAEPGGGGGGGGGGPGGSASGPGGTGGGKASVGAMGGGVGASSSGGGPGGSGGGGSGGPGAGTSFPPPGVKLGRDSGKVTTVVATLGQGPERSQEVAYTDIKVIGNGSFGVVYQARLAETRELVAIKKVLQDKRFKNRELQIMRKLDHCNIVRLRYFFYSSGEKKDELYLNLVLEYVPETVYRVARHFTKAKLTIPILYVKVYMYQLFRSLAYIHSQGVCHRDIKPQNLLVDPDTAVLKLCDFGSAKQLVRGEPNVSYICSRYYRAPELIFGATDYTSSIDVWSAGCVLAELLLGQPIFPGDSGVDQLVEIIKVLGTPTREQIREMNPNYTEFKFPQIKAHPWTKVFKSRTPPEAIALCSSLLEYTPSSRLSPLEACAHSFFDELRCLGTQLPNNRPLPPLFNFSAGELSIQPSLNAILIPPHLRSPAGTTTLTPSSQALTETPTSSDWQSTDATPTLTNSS
- PROTOCOL DESCRIPTION: concentration-response blocking of human GSK3A – biochemical, luminescence, cell-free homogeneous, retest, dose response (AID 463203)
- CONDITION INFO: GSK-3 alpha enzyme, ADP-Glo luminescence, 60 min
Active and inactive are the calls of the source.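 How the source made its calls: active means more than half of replicate measurements showing over 20% loss of kinase signal relative to plate controls; inconclusive means some but at most half of replicates over 20% loss; inactive means no replicate over 20% signal loss.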

Request: Please report the recorded AC50 for O=C(CSc1nc2[nH]ncc2c(=O)n1-c1ccc(Cl)c(Cl)c1)NCc1ccccc1Cl .
Result: > 30 µM (inactive)

Request: Same again, this time with Cc1ccc(N=Nc2c(O)[nH]c3ccc(F)cc23)cc1
Result: > 30 µM (inactive)

Request: Let us now turn to CCOC(=O)c1nc(NCc2cccnc2)c2ccccc2n1
Result: > 30 µM (inactive)

Request: Repeat for the following compound: COc1ccc(C2=Nn3c(nnc3-c3ccncc3)SC2)cc1
Result: 5.49 µM

Request: O=[N+]([O-])c1ccc(COc2ccccc2/C=N/O)cc1 , same question.
Result: > 30 µM (inactive)

Request: Here is the next compound: C/C(=N\O)C(=O)NCCCn1ccnc1
Result: > 30 µM (inactive)

Request: # iterate: CCC(=O)NCCNc1ccc([N+](=O)[O-])cn1
Result: > 30 µM (inactive)

Request: Now consider Clc1ccc(-c2noc(COc3ccccc3)n2)cc1 and answer again.
Result: > 30 µM (inactive)

Request: Another compound: COC(=O)[C@@H]1[C@H](CCc2ccccc2)NC(=O)N(Cc2ccccc2)[C@@H]1C
Result: > 30 µM (inactive)

Request: Entry Cc1ccc2nc(-c3cccc(N)c3)[nH]c2c1 please
Result: > 30 µM (inactive)

Request: // query: O=c1[nH]c2c(s1)C(c1ccco1)C1C3CCC(C3)C1S2 (stereo not given)
Result: 15.3 µM

Request: Okay, and CCOCC(=O)Nc1nc2ccc(OCC)cc2s1 ?
Result: > 30 µM (inactive)

Request: Entry to check: N#Cc1c(Nc2ccccc2)c(C=NCCN2CCOCC2)c[nH]c1=O
Result: > 30 µM (inactive)

Request: What do we get for CCn1c(=O)[nH]c(=O)c2c(N)c(C(=O)c3ccccc3OC)sc21 ?
Result: 16.8 µM

Request: Now consider CCOC(=O)c1cnc2ccc(OCC)cc2c1N1CCN(c2ccccc2OC)CC1 and answer again.
Result: 3.95 µM

Request: Could you do the same for COCc1cc(C)nc(OCC(=O)N/N=C/c2ccc(O)cc2)c1C#N , please?
Result: 13.3 µM

Request: Repeat for the following compound: COc1ccc(C(=O)NNC(=O)c2ccccn2)cc1
Result: 11.8 µM

Request: Another compound to look at: Nc1nonc1-n1nnc(C(=O)N/N=C/c2cccs2)c1CSc1ccccc1
Result: > 30 µM (inactive)

Request: Same question for O=C(Nc1cccc(F)c1)C1CCCN1S(=O)(=O)c1cccc2cccnc12 (stereo not given) please.
Result: 11.8 µM

Request: Next up: O=C(NCc1ccc(C(=O)N2CCC3(CC2)OCCO3)cc1)c1cccc(Br)c1
Result: > 30 µM (inactive)

Request: Query COc1ccc(Nc2sc(C(=O)c3ccc(Cl)cc3)c(N)c2C(=O)Nc2ccccc2OC)cc1 next
Result: > 30 µM (inactive)

Request: Same lookup for COc1cc(/C=N/O)ccc1OCc1ccc([N+](=O)[O-])cc1 , please.
Result: > 30 µM (inactive)

Request: Query CC(C)NC(=O)/C(=C\c1cccc([N+](=O)[O-])c1)NC(=O)c1ccccc1 next
Result: > 30 µM (inactive)

Request: Then what about the compound Cc1cccc(C)c1OCC(=O)Nc1ccc2c(c1)C(=O)NC2=O ?
Result: 22.5 µM

Request: What about Cc1ccc(C)c(-n2c3nc(=O)n(C)c(=O)c-3cc3ccccc32)c1 ?
Result: 31.3 µM

Request: Could you do the same for O=C(CCCN1C(=O)C2CCCCN2C1=O)N1CCN(c2ccc([N+](=O)[O-])cc2)CC1 (stereo not given) , please?
Result: > 30 µM (inactive)

Request: Field entry: COc1ccccc1-c1noc(CSc2nc(N)cc(=O)[nH]2)n1
Result: > 30 µM (inactive)

Request: Would you mind doing CCN1/C(=C/C=C/c2sc3ccccc3[n+]2CC)Sc2ccccc21 as well?
Result: 24.6 µM

Request: Another: COc1ccc(C(=O)O/N=C(\N)c2ccccc2)cc1
Result: 25 µM

Request: Let us now turn to COc1cccc(/C=N/NC(=O)c2nnn(-c3nonc3N)c2-c2cccs2)c1
Result: 0.899 µM

Request: Lookup COc1ccc(CCNc2nc(C)c(C(C)=O)s2)cc1OC
Result: > 30 µM (inactive)

Request: O=C(O)c1ccc2c(c1Nc1ccccc1)C(=O)c1ccccc1C2=O , same question.
Result: 18.6 µM

Request: Entry to check: COc1cc(/C=C2\Oc3ccc(C#Cc4ccc(O)cc4)cc3C2=O)cc(OC)c1
Result: > 30 µM (inactive)

Request: Now try CCOc1ccc2nnc(-c3ccc(Br)cc3)n2n1 .
Result: > 30 µM (inactive)

Request: Now the compound CCc1ccc(C2C3=C(CC(C)(C)CC3=O)Nc3c2c(=O)[nH]c2nc(C)nn32)cc1 (stereo not given)
Result: > 30 µM (inactive)

Request: Same for Cc1ccc(C2C3=C(CCCC3=O)Nc3c2c(C)nn3-c2ccccn2)o1 (stereo not given)
Result: > 30 µM (inactive)

Request: Now consider CCSc1nc2sc3c(c2c(=O)n1-c1ccccc1C)CCN(C)C3 and answer again.
Result: > 30 µM (inactive)

Request: Queued: NC(=O)c1cc([N+](=O)[O-])ccc1NCc1cccc(N)c1
Result: 15.6 µM

Request: What do we get for CCOC(=O)c1cc(C)sc1NC(=O)C1CCC1 ?
Result: > 30 µM (inactive)

Request: Consider next the compound COc1cc(/C=C2/S/C(=N/S(=O)(=O)Cc3ccccc3)NC2=O)c([N+](=O)[O-])cc1OC in the same way.
Result: > 30 µM (inactive)

Request: Next: O=Cc1cn(-c2ccccc2)nc1-c1cccnc1
Result: > 30 µM (inactive)

Request: What about COc1ccc(C(=O)NCC(=O)N/N=C/C=C/c2ccccc2)cc1OC ?
Result: > 30 µM (inactive)

Request: Same question, CCOC(=O)N1CCC(N2CCN(S(=O)(=O)c3ccc4ccccc4c3)CC2)CC1 this time
Result: > 30 µM (inactive)

Request: Moving on to COc1ccc(/C=C/c2nc(N)nc(-c3ccccc3O)n2)cc1OC
Result: > 30 µM (inactive)

Request: Can you handle Cc1c(C(=O)N2CCOCC2)oc2ccc(S(=O)(=O)N3CCCCCC3)cc12 next?
Result: > 30 µM (inactive)

###

- TEST SYSTEM: Glycogen synthase kinase-3 alpha (Homo sapiens)
- PROTOCOL DESCRIPTION: concentration-response blocking of human GSK3A – biochemical, luminescence, cell-free homogeneous, retest, dose response (AID 463203)
- CONDITION INFO: GSK-3 alpha enzyme, ADP-Glo luminescence, 60 min
Calls of active or inactive are those of the source.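 How the source made its calls: active means more than half of replicate measurements showing over 20% loss of kinase signal relative to plate controls; inconclusive means some but at most half of replicates over 20% loss; inactive means no replicate over 20% signal loss.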
Your answer must be one of the following: 1.0 (active), 0.0 (inactive)

Request: In this assay, the call recorded for c1ccc2[nH]c(Cn3nnc4ccccc43)nc2c1 was what?
Result: 0.0

Request: Queued: COc1cc(/C=N/Nc2nc(=O)[nH]nc2C)cc([N+](=O)[O-])c1O
Result: 1.0

Request: Please do the same for CC1CCCC(C)N1C(=O)COC(=O)c1c[nH]c2ccccc12 (stereo unspecified) as well.
Result: 0.0

Request: Another compound: Cc1[nH]nc(NCCO)c1[N+](=O)[O-]
Result: 0.0

Request: // query: COCCNc1cc(N)c([N+](=O)[O-])cc1[N+](=O)[O-]
Result: 0.0

Request: // query: COc1ccc(C2CC(=O)Nc3n[nH]c(-c4ccccc4)c32)cc1OC (stereo unspecified)
Result: 1.0

Request: # iterate: Cc1cc2nc(-c3cccnc3SCC(=O)NC3CC3)[nH]c2cc1C
Result: 0.0

Request: Do the same for Cc1cccc(OCC(=O)Nc2ccc3c(c2)C(=O)NC3=O)c1 please
Result: 0.0

Request: What about this compound? COCCNc1nc(C)cc(-c2cc(C(=O)NC3CCCC3)on2)n1
Result: 0.0

Request: Please do the same for COC(=O)C1=C(C)NC(=O)NC1c1ccc2c(c1)OCO2 (stereo unspecified) as well.
Result: 0.0

Request: Now the compound CCOc1ccc2[nH]cc(S(=O)(=O)c3ccc(C)cc3)c(=O)c2c1
Result: 0.0

Request: Lookup COc1ccccc1N1C(=O)C2C(c3ccc(F)cc3)NN(C(=O)c3ccc(C)cc3)C2C1=O (stereo unspecified)
Result: 0.0

Request: // query: CCOC(=O)c1nnn(-c2nonc2N)c1-c1cccc2ccccc12
Result: 1.0

Request: Now consider Cn1c(=O)c2c(-c3ccccc3)n(Cc3ccccn3)cc2n(C)c1=O and answer again.
Result: 0.0

Request: Moving on to O=C(CCSc1nc(-c2ccc3c(c2)OCO3)cc(C(F)(F)F)n1)NCc1ccco1
Result: 0.0

Request: Subsequent entry: Cc1nnc(NC(=O)Oc2ccccc2)s1
Result: 0.0

Request: Now give it for Cc1ccc(O)c(C(=O)c2coc(=N)c(C(=O)NC(C)C)c2)c1 too.
Result: 1.0

Request: Param item: Cc1c(C(=O)N/N=C/c2cccnc2)nnn1-c1nonc1N
Result: 0.0

Request: Again, but for COc1ccc(C(=O)NC(=O)CSc2nnc(-c3ccco3)n2-c2ccccc2)cc1
Result: 0.0

Request: Queued: CC1CCCN(Cc2c(O)ccc3c2O/C(=C\c2ccco2)C3=O)C1 (stereo unspecified)
Result: 1.0

Request: Now try N#CCC(=O)Nc1sc2c(c1C(N)=O)CCCC2 .
Result: 1.0

Request: C=CCNc1nc(N)c([N+](=O)[O-])c(N2CCCCCC2)n1 ?
Result: 1.0

Request: Proceed to N#Cc1c(Nc2ccccc2)c(/C=N/N=C/c2ccccc2)c[nH]c1=O
Result: 0.0

Request: Consider next the compound COC(=O)c1ccc(CSc2n[nH]c(=S)s2)o1 in the same way.
Result: 0.0

Request: Record: CCc1nnc(NS(=O)(=O)c2ccc(N/C=C(\C=O)c3nc4cc(Cl)ccc4o3)cc2)s1
Result: 1.0

Request: Another: COCc1nnc(NC(=O)CCCCCN2C(=O)c3ccccc3C2=O)s1
Result: 0.0

Request: Do the same for CCc1cc2c(NCc3ccco3)ncnc2s1 please
Result: 0.0

Request: Also, CCOc1cc(/C=N/NC(=O)N/N=C/c2ccc(O)c(OCC)c2)ccc1O please.
Result: 0.0

Request: What about COC(=O)[C@H](C)NC(=O)NCc1ccccc1F ?
Result: 0.0

Request: What would you report for COc1cccc(Nc2nc(N)c([N+](=O)[O-])c(NCc3ccccc3)n2)c1 ?
Result: 1.0

Request: And what about the compound CCOC(=O)c1c(-c2cccc([N+](=O)[O-])c2)csc1N ?
Result: 1.0

Request: // repeat for O=C(Nc1ccc(C(=O)NC2CCCCC2)cc1)c1cccnc1 and report
Result: 0.0

Request: Moving on to the next compound: CCOC(=O)c1nnn(-c2nonc2OC)c1-c1ccccc1
Result: 0.0

Request: Query N#CC1=C2SCN(Cc3ccco3)CN2C(=O)CC1c1cccc2ccccc12 (stereo unspecified) next
Result: 0.0

Request: Okay, and Fc1ccc(/C=N/Nc2nc3ccccc3[nH]2)cc1F ?
Result: 0.0

Request: Cool, now CC(=O)Nc1ccc(NC(=O)c2cc(-n3cnnc3)ccc2Cl)cc1
Result: 0.0

Request: How about this compound: COc1ccc(-c2cc(=O)oc3cc(O)ccc23)cc1
Result: 1.0

Request: What do you get for Cc1ccc(C(=O)Nc2nnc(C)s2)cc1 ?
Result: 0.0

Request: Also, O=C(CN(Cc1ccco1)C(=O)CCC(=O)Nc1ccccn1)NCc1ccccc1 please.
Result: 0.0

Request: Try the compound NC(=O)c1sc2nc3c(c(-c4ccco4)c2c1N)CCCC3
Result: 1.0

Request: COc1ccc(CC(=O)NCCc2cnc[nH]2)cc1 , same question.
Result: 0.0

Request: Would you mind doing Fc1ccccc1/C=N/Nc1ncnc2ccccc12 as well?
Result: 0.0

Request: Next: O=C1NC(=S)N/C1=C\c1ccc(N2CCOCC2)cc1
Result: 0.0

Request: Another compound: Cc1ccc(C2C3=C(CCCC3=O)Nc3[nH]c(=S)[nH]c(=O)c32)cc1 (stereo unspecified)
Result: 0.0

Request: Continue with COc1ccc(C2=Nn3c(nnc3-c3cccnc3)SC2)cc1OC
Result: 0.0

Request: Please give the result for CC(=O)C(Sc1ccc2nnc(-c3ccncc3)n2n1)C(C)=O too.
Result: 0.0
